molecular target: human p38 kinase alpha (Homo sapiens); construct: GST (N, cleaved yes); made in house; host or cells: E. coli DH10B; assay: p38 kinase in vitro assay, phosphorylation of biotinylated PHAS-I with 32P-ATP; assay type: biochemical; conditions: in vitro P38-alpha kinase inhibition; read-out: P38 alpha kinase IC50
MEASURED PROPERTY: IC50 (nM)

Example entries and their recorded answers appear below.
Cc1ccc(S(=O)(=O)NC(Cc2ccccc2)C(=O)NC(Cc2ccccc2)c2[nH]nc(-c3ccc(F)cc3)c2-c2ccncc2)cc1 (stereo not drawn) [Example B-0859]	39500
CC(NS(=O)(=O)c1ccccc1C(F)(F)F)c1[nH]nc(-c2ccc(F)cc2)c1-c1ccncc1 (stereo not drawn)	150
O=C(NCCc1[nH]nc(-c2ccc(F)cc2)c1-c1ccncc1)c1cc(Cl)cc(Cl)c1	1500

[P] CCCCS(=O)(=O)NC(Cc1ccccc1)c1[nH]nc(-c2ccc(F)cc2)c1-c1ccncc1 (stereo not drawn) [Example B-0716]
[Q] CC(NS(=O)(=O)c1ccc(-c2ccccn2)s1)c1[nH]nc(-c2ccc(F)cc2)c1-c1ccncc1 (stereo not drawn)
[R] C=CCOC(=O)NC(C)c1[nH]nc(-c2ccc(F)cc2)c1-c1ccncc1 (stereo not drawn)
[S] Cc1ccc(S(=O)(=O)NC(Cc2ccccc2)c2[nH]nc(-c3ccc(F)cc3)c2-c2ccncc2)cc1 (stereo not drawn) [Example B-0766]
Your job: order these 4 records by IC50, ascending. Form entry: labels listed in requested order.
Q, R, S, P
(Q: 88 nM, R: 410 nM, S: 950 nM, P: 4600 nM)

* * *

molecular target: human p38 kinase alpha (Homo sapiens, UniProt Q16539); construct: GST (N, cleaved yes); made in house; host or cells: E. coli DH10B; experiment: p38 kinase in vitro assay, phosphorylation of biotinylated PHAS-I with 32P-ATP; assay type: biochemical; conditions: read-out: P38 alpha kinase IC50
Sequence (Q16539 whole entry): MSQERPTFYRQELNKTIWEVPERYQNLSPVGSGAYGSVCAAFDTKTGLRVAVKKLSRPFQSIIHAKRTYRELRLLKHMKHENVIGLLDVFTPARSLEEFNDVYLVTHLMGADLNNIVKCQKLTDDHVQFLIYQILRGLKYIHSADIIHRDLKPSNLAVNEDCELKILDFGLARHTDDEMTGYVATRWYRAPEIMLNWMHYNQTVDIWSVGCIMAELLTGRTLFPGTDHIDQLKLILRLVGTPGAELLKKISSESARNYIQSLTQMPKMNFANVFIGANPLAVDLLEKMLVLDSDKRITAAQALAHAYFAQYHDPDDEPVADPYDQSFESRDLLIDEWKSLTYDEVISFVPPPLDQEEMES
MEASURED PROPERTY: IC50 (nM)

COCC(=O)N[C@H]1CC[C@@H](C2=NN=C(c3ccc(Cl)cc3)C2c2ccncc2)CC1 (stereo partly drawn)	77

[P] N[C@H]1CC[C@@H](c2[nH]nc(-c3ccc(C(F)(F)F)cc3)c2-c2ccncc2)CC1
[Q] CN(C)[C@H]1CC[C@@H](c2[nH]nc(-c3ccc(C(F)(F)F)cc3)c2-c2ccncc2)CC1
Select one: P or Q . Criterion: greater recorded IC50. Give the label of your selection.
Q

* * *

biological target: human p38 kinase alpha (Homo sapiens, UniProt Q16539); construct: GST (N, cleaved yes); made in house; host or cells: E. coli DH10B; test: p38 kinase in vitro assay, phosphorylation of biotinylated PHAS-I with 32P-ATP; type: biochemical; conditions: in vitro P38-alpha kinase inhibition; read-out: P38 alpha kinase IC50
MEASURED PROPERTY: IC50 (µM)

O=S(=O)(NC(Cc1ccccc1)c1[nH]nc(-c2ccc(F)cc2)c1-c1ccncc1)c1ccc(F)cc1 (stereo not shown) [Example B-0752]	0.33

[1] COc1cccc(C(=O)NC(Cc2ccccc2)c2[nH]nc(-c3ccc(F)cc3)c2-c2ccncc2)c1 (stereo not shown)
[2] O=C(NCCc1[nH]nc(-c2ccc(F)cc2)c1-c1ccncc1)c1ccccc1F
Lab log: flag the item ( 1 or 2 ) with the smaller IC50 figure. Write down the label attached to your selection.
2

[a] CN(C)C(=O)NC(Cc1ccccc1)c1[nH]nc(-c2ccc(F)cc2)c1-c1ccncc1 (stereo not shown) [Example B-0774]
[b] CC(NS(=O)(=O)c1cc(Cl)ccc1Cl)c1[nH]nc(-c2ccc(F)cc2)c1-c1ccncc1 (stereo not shown)
[c] Cc1ccc(S(=O)(=O)NC(Cc2ccccc2)C(=O)NC(Cc2ccccc2)c2[nH]nc(-c3ccc(F)cc3)c2-c2ccncc2)cc1 (stereo not shown) [Example B-0827]
Parameters: sort_field (IC50), sort_dir (desc). Write the labels out in the order the request specifies.
c, a, b
(c: 15.6 µM, a: 1.5 µM, b: 0.08 µM)

* * *

target: human p38 kinase alpha (Homo sapiens); construct: GST (N, cleaved yes); made in house; host or cells: E. coli DH10B; test: p38 kinase in vitro assay, phosphorylation of biotinylated PHAS-I with 32P-ATP; type: biochemical; conditions: in vitro P38-alpha kinase; read-out: P38 alpha kinase IC50
pIC50: −log10 of the molar value.
MEASURED PROPERTY: pIC50

O=S(=O)(c1cccc(C(F)(F)F)c1)N1CCC(c2[nH]nc(-c3ccc(F)cc3)c2-c2ccncc2)CC1	5.79
O=C(c1cccc(Cl)c1)N1CCC(c2[nH]nc(-c3ccc(F)cc3)c2-c2ccncc2)CC1	6.49
O=C(c1cccc(Cl)c1Cl)N1CCC(c2[nH]nc(-c3ccc(F)cc3)c2-c2ccncc2)CC1	6.85
O=C(NCCCc1[nH]nc(-c2ccc(F)cc2)c1-c1ccncc1)c1cccc2ccccc12	6.18
O=C(c1cccc(C(F)(F)F)c1F)N1CCC(c2[nH]nc(-c3ccc(F)cc3)c2-c2ccncc2)CC1	6.40
Cc1c(-c2ccncc2)c(-c2ccc(F)cc2)nn1CC(=O)NCc1ccccc1Cl	6.59
Cc1ccc(S(=O)(=O)N2CCC(c3[nH]nc(-c4ccc(F)cc4)c3-c3ccncc3)CC2)cc1	5.91
O=S(=O)(c1ccccc1)N1CCC(c2[nH]nc(-c3ccc(F)cc3)c2-c2ccncc2)CC1	6.59
CCNC(=O)N1CCC(c2[nH]nc(-c3ccc(F)cc3)c2-c2ccncc2)CC1	7.26
COc1ccc(OC)c(S(=O)(=O)N2CCC(c3[nH]nc(-c4ccc(F)cc4)c3-c3ccncc3)CC2)c1	6.52

[P] CS(=O)(=O)c1ccccc1S(=O)(=O)NCCCc1[nH]nc(-c2ccc(F)cc2)c1-c1ccncc1
[Q] CCSCCNC(=O)Cn1nc(-c2ccc(F)cc2)c(-c2ccncc2)c1C
[R] O=C(NCCCc1[nH]nc(-c2ccc(F)cc2)c1-c1ccncc1)c1cc(C(F)(F)F)ccc1F
List the 3 entries from lowest pIC50 to highest pIC50 value. Respond with an ordered listing of the labels, as requested.
Q, R, P
(Q: 5.53, R: 7.01, P: 7.89)

* * *

molecular target: human p38 kinase alpha (Homo sapiens); construct: GST (N, cleaved yes); made in house; host or cells: E. coli DH10B; assay: p38 kinase in vitro assay, phosphorylation of biotinylated PHAS-I with 32P-ATP; assay type: biochemical; settings: activated human p38 kinase alpha, PHAS-I substrate, 50 μM unlabeled ATP; read-out: p38 kinase IC50
MEASURED PROPERTY: IC50 (nM)

Guide cases for IC50, answers given:
Cc1n[nH]c(-c2ccc(Br)cc2)c1-c1ccncc1 [Example A-39]	1100
CCOc1ccc(-c2n[nH]c(C)c2-c2ccncc2)cc1 [Example A-47]	3200
Cc1[nH]nc(-c2cccc(C(F)(F)F)c2)c1-c1ccncc1 [Example A-42]	300
Cc1n[nH]c(-c2ccccc2F)c1-c1ccncc1 [Example A-40]	1300
CCOC(=O)CCc1[nH]nc(-c2ccc(Cl)cc2)c1-c1ccncc1 [Example A-53]	900
Cc1[nH]nc(-c2ccc(Cl)cc2Cl)c1-c1ccncc1 [Example A-50]	2300
Cc1[nH]nc(-c2cccc(F)c2C)c1-c1ccncc1 [Example A-33]	2500
Cc1cc(C)cc(-c2n[nH]c(C)c2-c2ccncc2)c1 [Example A-34]	8000

[A] Cc1cccc(-c2n[nH]c(-c3cccc(C)c3)c2-c2ccncc2)c1 [Example A-28]
[B] CCCc1[nH]nc(-c2cccc(C)c2)c1-c1ccncc1 [Example A-26]
[C] Cc1[nH]nc(-c2ccc(C(F)(F)F)cc2)c1-c1ccncc1 [Example A-48]
Rank entries according to their IC50, from the largest number down. Sort and list the labels as requested.
C, B, A

* * *

molecular target: human p38 kinase alpha (Homo sapiens, UniProt Q16539); construct: GST (N, cleaved yes); made in house; host or cells: E. coli DH10B; assay: p38 kinase in vitro assay, phosphorylation of biotinylated PHAS-I with 32P-ATP; type: biochemical; details: in vitro P38-alpha kinase; read-out: P38 alpha kinase IC50
MEASURED PROPERTY: IC50 (nM)

O=C(c1c(Cl)cccc1Cl)N1CCC(c2[nH]nc(-c3ccc(F)cc3)c2-c2ccncc2)CC1	16
O=S(=O)(NCCCc1[nH]nc(-c2ccc(F)cc2)c1-c1ccncc1)c1ccc(-c2ccon2)s1	260
O=C(NCCCc1[nH]nc(-c2ccc(F)cc2)c1-c1ccncc1)c1cccc(C(F)(F)F)c1F	120
O=C(NCCCc1[nH]nc(-c2ccc(F)cc2)c1-c1ccncc1)NCCCn1ccnc1	20
COc1ccc(C)c(S(=O)(=O)N2CCC(c3[nH]nc(-c4ccc(F)cc4)c3-c3ccncc3)CC2)c1	500
O=C(c1ccc(Cl)cc1)N1CCC(c2[nH]nc(-c3ccc(F)cc3)c2-c2ccncc2)CC1	60
Cc1c(-c2ccncc2)c(-c2ccc(F)cc2)nn1CC(=O)NCCCCN1CCCC1	6510
O=C(NCCCc1[nH]nc(-c2ccc(F)cc2)c1-c1ccncc1)c1c(Cl)cccc1Cl	9

[P] Cc1cccc(C(=O)NCCCc2[nH]nc(-c3ccc(F)cc3)c2-c2ccncc2)c1
[Q] Cc1ccccc1S(=O)(=O)N1CCC(c2[nH]nc(-c3ccc(F)cc3)c2-c2ccncc2)CC1
[R] O=S(=O)(c1ccc(C(F)(F)F)cc1)N1CCC(c2[nH]nc(-c3ccc(F)cc3)c2-c2ccncc2)CC1
[S] O=S(=O)(NCCCc1[nH]nc(-c2ccc(F)cc2)c1-c1ccncc1)c1cc(Cl)ccc1Cl
Rank the items in ascending order with respect to IC50. Write the labels in rank order as requested.
P, S, Q, R
(P: 14 nM, S: 40 nM, Q: 670 nM, R: 1230 nM)

[1] O=S(=O)(c1cccc2cnccc12)N1CCC(c2[nH]nc(-c3ccc(F)cc3)c2-c2ccncc2)CC1
[2] O=S(=O)(NCCCc1[nH]nc(-c2ccc(F)cc2)c1-c1ccncc1)c1cc(S(=O)(=O)c2ccccc2)cs1
Would you let me know which has the greater IC50 value, 1 or 2 ? Identify your pick by its label.
2
